- TEST_SUMMARY: SK-BR-3 cell growth inhibitors, pilot screen, 24 h, human (AID 572);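 also: compound exposure lasted between 18 and 24 h rather than exactly 24 h; 100% = carrier-treated control wells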
- APPLIED_CONDITIONS: SK-BR-3 viability, CellTiter-Glo luminescence, at 10 µM, stronger effect = lower value
OBSERVABLE: viability (%)
Please reply with the bare figure in % and do not write the unit itself.

>>> value_reported("Cc1ccc(CNC(=O)C2CCN(S(=O)(=O)c3cccs3)CC2)o1")
138
>>> value_reported("Cc1ccccc1N1CC(c2nc3ccccc3[nH]2)CC1=O (configuration not stated)")
102
>>> value_reported("COc1ccc(OC)c(Nc2nc(-c3sc(N)nc3C)cs2)c1")
97
>>> value_reported("CCOc1cc(C(=O)N(C)Cc2cc3ccccc3[nH]c2=O)cc(OCC)c1OCC")
92
>>> value_reported("CC(=O)OCC(=O)[C@H]1CC[C@H]2[C@@H]3CC=C4C[C@@H](O)CC[C@]4(C)[C@H]3CC[C@]12C")
87

// viability lookup, molecule = Cc1nc(-c2cccc(-c3noc(C)n3)c2)no1 , result: 87.5

Entry CC(C)CC1NC(=O)N(CC(=O)N2CCN(S(=O)(=O)c3ccc(Cl)cc3)CC2)C1=O (configuration not stated) , viability reported as 97

According to the records, this molecule CCOC(=O)CCNC(=O)Nc1ccc2nc(C)n(Cc3ccccc3Cl)c(=O)c2c1 displays viability of 87

So, O=C(CN1C(=O)c2cccc3cccc1c23)Nc1ccccc1C(=O)NCc1ccco1 ? Its viability was 89

GET /value?item= Cc1nc2cc(NC(=O)N3c4ccccc4CC3C)ccc2o1 (configuration not stated) &field=viability returns 91

// field: viability; key: O=C(CSc1nnc(-c2ccccc2)o1)NC1CCCCC1 ; value = 75

Documented viability of CCOC(=O)C1CCN(CC(=O)Nc2c(C(=O)OC)[nH]c3ccc(Cl)cc23)CC1 : 103

response.value for Cc1nc(C)c2c(c1C(F)(F)F)-c1ccccc1C2(F)F (field: viability) = 98
